Target: UniProt P25774
Sequence (P25774 whole entry, the tested form may be a part): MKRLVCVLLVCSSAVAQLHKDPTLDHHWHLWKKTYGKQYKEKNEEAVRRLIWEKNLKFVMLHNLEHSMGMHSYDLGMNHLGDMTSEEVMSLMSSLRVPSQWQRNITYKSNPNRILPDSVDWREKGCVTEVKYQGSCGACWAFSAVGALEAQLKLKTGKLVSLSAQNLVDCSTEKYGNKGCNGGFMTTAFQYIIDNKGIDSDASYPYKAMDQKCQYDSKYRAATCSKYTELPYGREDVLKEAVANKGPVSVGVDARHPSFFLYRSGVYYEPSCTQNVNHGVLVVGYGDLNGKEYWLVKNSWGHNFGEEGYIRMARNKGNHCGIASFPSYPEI
Experiment: Inhibition of C-terminal His-tagged recombinant Human cathepsin S (17 to 331 residues) expressed in FreeStyle 293-F cells using Z-Leu-Arg-MCA peptide as fluorogenic substrate preincubated for 30 mins followed by substrate addition and measured after 1 hr by multimode plate reader analysis
pIC50: −log10 of the molar value.
QUANTITY_MEASURED: pIC50

Value (pIC50, UniProt P25774) for record `CC(C)C[C@H](NC(=O)c1cc2c(F)cccc2[nH]1)C(=O)NN(C[C@@H]1CCNC1=O)C(=O)[C@H](F)Cl` = < 4.30

----------
Target: Cathepsin B (Homo sapiens)
Assay: Inhibition of C-terminal His-tagged Human cathepsin B expressed in FreeStyle 293-F cells using Z-Leu-Arg-MCA peptide as fluorogenic substrate preincubated for 30 mins followed by substrate addition and measured after 1 hr by multimode plate reader analysis
pIC50: −log10 of the molar value.
QUANTITY_MEASURED: pIC50

Form: molecule = `CC(C)C[C@H](NC(=O)c1cc2c(F)cccc2[nH]1)C(=O)NN(C[C@@H]1CCNC1=O)C(=O)[C@H](F)Cl` ; pIC50 = < 4.30

Numbers sourced from ChEMBL document CHEMBL5108072.
